Target: Protease (Human immunodeficiency virus 1) (UniProt Q9YQ12)
Sequence (Q9YQ12 as listed by the source): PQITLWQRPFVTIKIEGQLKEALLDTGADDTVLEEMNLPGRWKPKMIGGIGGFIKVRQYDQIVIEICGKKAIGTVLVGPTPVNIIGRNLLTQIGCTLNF
Experiment: Inhibition of recombinant HIV1 protease at 50 nM
property: inhibition

1. Cc1cc(NCc2ccncc2)cc(C)c1OCC(=O)N[C@@H](Cc1ccccc1)[C@H](O)C(=O)N1CSC(C)(C)[C@H]1C(=O)N[C@H]1c2ccccc2C[C@H]1O : 91%
2. CCCCNc1cc(C)c(OCC(=O)N[C@@H](Cc2ccccc2)[C@H](O)C(=O)N2CSC(C)(C)[C@H]2C(=O)N[C@H]2c3ccccc3C[C@H]2O)c(C)c1 : 85%
3. CC(C)c1cccc(C(C)C)c1OCC(=O)N[C@@H](Cc1ccccc1)[C@H](O)C(=O)N1CSC(C)(C)[C@H]1C(=O)N[C@H]1c2ccccc2C[C@H]1O : 0%
4. COc1ccc(OCC(=O)N[C@@H](Cc2ccccc2)[C@H](O)C(=O)N2CSC(C)(C)[C@H]2C(=O)N[C@H]2c3ccccc3C[C@H]2O)cc1 : 38%
5. CC1(C)SCN(C(=O)[C@@H](O)[C@H](Cc2ccccc2)NC(=O)COc2cccc(O)c2)[C@@H]1C(=O)N[C@H]1c2ccccc2C[C@H]1O : 13%
6. CC1(C)SCN(C(=O)[C@@H](O)[C@H](Cc2ccccc2)NC(=O)COc2c(Cl)cccc2Cl)[C@@H]1C(=O)N[C@H]1c2ccccc2C[C@H]1O : 95%
7. CC1(C)SCN(C(=O)[C@@H](O)[C@H](Cc2ccccc2)NC(=O)COc2ccc(CO)cc2)[C@@H]1C(=O)N[C@H]1c2ccccc2C[C@H]1O : 37%
8. COc1cccc(OCC(=O)N[C@@H](Cc2ccccc2)[C@H](O)C(=O)N2CSC(C)(C)[C@H]2C(=O)N[C@H]2c3ccccc3C[C@H]2O)c1 : 10%
9. CC1(C)SCN(C(=O)[C@@H](O)[C@H](Cc2ccccc2)NC(=O)COc2cccc([N+](=O)[O-])c2)[C@@H]1C(=O)N[C@H]1c2ccccc2C[C@H]1O : 12%
10. Cc1ccccc1OCC(=O)N[C@@H](Cc1ccccc1)[C@H](O)C(=O)N1CSC(C)(C)[C@H]1C(=O)N[C@H]1c2ccccc2C[C@H]1O : 72%
11. Cc1ccc(OCC(=O)N[C@@H](Cc2ccccc2)[C@H](O)C(=O)N2CSC(C)(C)[C@H]2C(=O)N[C@H]2c3ccccc3C[C@H]2O)cc1 : 27%
12. Cc1cc(N)cc(C)c1OCC(=O)N[C@@H](Cc1ccccc1)[C@H](O)C(=O)N1CSC(C)(C)[C@H]1C(=O)N[C@H]1c2ccccc2C[C@H]1O : 96%

----------
Target: UniProt P46925
Sequence (P46925 whole entry): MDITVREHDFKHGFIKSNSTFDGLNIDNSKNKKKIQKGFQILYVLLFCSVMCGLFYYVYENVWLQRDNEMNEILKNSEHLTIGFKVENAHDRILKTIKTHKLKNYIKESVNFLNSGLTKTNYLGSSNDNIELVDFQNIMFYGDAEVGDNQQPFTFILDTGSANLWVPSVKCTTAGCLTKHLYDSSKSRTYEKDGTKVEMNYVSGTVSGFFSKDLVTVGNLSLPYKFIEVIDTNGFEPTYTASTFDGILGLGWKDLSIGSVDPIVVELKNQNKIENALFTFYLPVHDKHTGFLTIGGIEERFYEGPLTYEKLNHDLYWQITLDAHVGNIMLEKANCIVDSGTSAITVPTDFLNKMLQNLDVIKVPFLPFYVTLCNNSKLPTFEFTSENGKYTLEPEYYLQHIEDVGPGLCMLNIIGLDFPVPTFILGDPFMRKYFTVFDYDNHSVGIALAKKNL
pKi: −log10 of the molar value.
property: pKi

1) Cc1cc(F)cc(C)c1OCC(=O)N[C@@H](Cc1ccccc1)[C@H](O)C(=O)N1CSC(C)(C)[C@H]1C(=O)N[C@H]1c2ccccc2C[C@H]1O : 7.72
2) Cc1cc(O)cc(C)c1OCC(=O)N[C@@H](Cc1ccccc1)[C@H](O)C(=O)N1CSC(C)(C)[C@H]1C(=O)N[C@H]1c2ccccc2C[C@H]1O : 8.30
3) Cc1cc(N)cc(C)c1OCC(=O)N[C@@H](Cc1ccccc1)[C@H](O)C(=O)N1CSC(C)(C)[C@H]1C(=O)N[C@H]1c2ccccc2C[C@H]1O : 7.64

----------
Target: Protease (Human immunodeficiency virus 1) (UniProt Q9YQ12)
Experiment: Inhibition of recombinant HIV1 protease at 50 nM
property: inhibition (%)

1) CC1(C)SCN(C(=O)[C@@H](O)[C@H](Cc2ccccc2)NC(=O)COc2c(F)cccc2F)[C@@H]1C(=O)N[C@H]1c2ccccc2C[C@H]1O : 58
2) Cc1cc(O)cc(C)c1OCC(=O)N[C@@H](Cc1ccccc1)[C@H](O)C(=O)N1CSC(C)(C)[C@H]1C(=O)N[C@H]1c2ccccc2C[C@H]1O : 98
3) CC1(C)SCN(C(=O)[C@@H](O)[C@H](Cc2ccccc2)NC(=O)COc2ccccc2CO)[C@@H]1C(=O)N[C@H]1c2ccccc2C[C@H]1O : 61
4) CNc1cc(C)c(OCC(=O)N[C@@H](Cc2ccccc2)[C@H](O)C(=O)N2CSC(C)(C)[C@H]2C(=O)N[C@H]2c3ccccc3C[C@H]2O)c(C)c1 : 91
5) CC1(C)SCN(C(=O)[C@@H](O)[C@H](Cc2ccccc2)NC(=O)COc2ccc(N)cc2)[C@@H]1C(=O)N[C@H]1c2ccccc2C[C@H]1O : 27
6) Cc1cccc(C)c1OCC(=O)N[C@@H](Cc1ccccc1)[C@H](O)C(=O)N1CSC(C)(C)[C@H]1C(=O)N[C@H]1c2ccccc2C[C@H]1O : 98
7) CC1(C)SCN(C(=O)[C@@H](O)[C@H](Cc2ccccc2)NC(=O)COc2ccc(O)cc2)[C@@H]1C(=O)N[C@H]1c2ccccc2C[C@H]1O : 31
8) CC1(C)SCN(C(=O)[C@@H](O)[C@H](Cc2ccccc2)NC(=O)COc2ccccc2O)[C@@H]1C(=O)N[C@H]1c2ccccc2C[C@H]1O : 34
9) COc1cccc(OC)c1OCC(=O)N[C@@H](Cc1ccccc1)[C@H](O)C(=O)N1CSC(C)(C)[C@H]1C(=O)N[C@H]1c2ccccc2C[C@H]1O : 54
10) CC1(C)SCN(C(=O)[C@@H](O)[C@H](Cc2ccccc2)NC(=O)COc2ccc([N+](=O)[O-])cc2)[C@@H]1C(=O)N[C@H]1c2ccccc2C[C@H]1O : 53
11) CC1(C)SCN(C(=O)[C@@H](O)[C@H](Cc2ccccc2)NC(=O)COc2ccccc2[N+](=O)[O-])[C@@H]1C(=O)N[C@H]1c2ccccc2C[C@H]1O : 9
12) Cc1cc(F)cc(C)c1OCC(=O)N[C@@H](Cc1ccccc1)[C@H](O)C(=O)N1CSC(C)(C)[C@H]1C(=O)N[C@H]1c2ccccc2C[C@H]1O : 87
